assay: In vivo pharmacokinetics assay in rat; settings: male, SD, plasma, oral, rats, P.O, 4 mg/kg
readout_type: Cmax
Write the numeric value and append its unit.

[in] Please supply the value of reported Cmax for the item Cn1c(=O)c2cnc3ccc(-c4ccc(N)nc4)nc3c2n(-c2cccc(C(F)(F)F)c2)c1=O
[out] 1120 ng/mL

====

The listing below reports pIC50 for molecules tested on mTOR (Homo sapiens (Human)).
The quantity pIC50 is defined as the negative base-10 logarithm of the molar concentration.

Previously resolved entries follow.
smiles_structure	experimental_value
O=c1[nH]c(=O)n(-c2cccc(C(F)(F)F)c2)c2c1cnc1ccc(-c3cnc4[nH]ccc4c3)nc12	8.95
COc1ncc(-c2ccc3ncc4c(=O)[nH]c(=O)n(-c5cccc(C(F)(F)F)c5)c4c3n2)cn1	7.41
Nc1ncc(-c2ccc3ncc4c(=O)[nH]c(=O)n(-c5cccc(C(F)(F)F)c5)c4c3n2)cn1	8.58

Now examine the next entry.
[in] # return pIC50 of COc1ccc(-c2ccc3ncc4c(=O)[nH]c(=O)n(-c5cccc(C(F)(F)F)c5)c4c3n2)cn1 (system: mTOR (Homo sapiens (Human)))
[out] 7.24

====

Target: PIM1 (Homo sapiens (Human))
Sequence (P11309 whole entry, species assumed): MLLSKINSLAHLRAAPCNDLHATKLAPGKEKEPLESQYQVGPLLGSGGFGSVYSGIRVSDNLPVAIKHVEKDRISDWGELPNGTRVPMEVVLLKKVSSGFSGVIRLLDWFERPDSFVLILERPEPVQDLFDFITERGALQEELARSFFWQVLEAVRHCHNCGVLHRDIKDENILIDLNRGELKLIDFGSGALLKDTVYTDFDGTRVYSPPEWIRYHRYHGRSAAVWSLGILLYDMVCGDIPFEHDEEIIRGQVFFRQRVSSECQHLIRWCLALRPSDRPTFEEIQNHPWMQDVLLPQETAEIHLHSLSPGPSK
Experiment: Kinase selectivity, Mobility shift assay
Format: biochemical
Protocol: Object: In this assay, the inhibitory activity of the test substance on the kinases listed in Table 3 was determined, and therefore the selectivity of the present compound was determined. […] • 3.1 To the 384-well reaction plate was added 5-fold compound dissolved in 10% DMSO at 5 μl/well. • 3.2 To the 384-well reaction plate was added 2.5-fold kinase solution at 10 μl/well. […] The conversion was read from Caliper. […]
readout_type: IC50

[in] // fetch IC50 for Nc1ccc(-c2ccc3ncc4c(=O)[nH]c(=O)n(-c5cccc(C(F)(F)F)c5)c4c3n2)cn1 [Compound 5] ; system: PIM1 (Homo sapiens (Human))
[out] > 10000 nM

====

// reported AUC(0-inf) for each item listed
assay: In vivo pharmacokinetics assay in rat; conditions: male, SD, plasma, po, rats, P.O, 4 mg/kg
Express it in ng·h/mL; write the number only.

smiles_structure	readout_type	experimental_value
O=c1[nH]c(=O)n(-c2cccc(C(F)(F)F)c2)c2c1cnc1ccc(-c3cnc4[nH]ccc4c3)nc12	AUC(0-inf)	785

Shifting focus to the compound that follows.
[in] Report measured AUC(0-inf); entry is Nc1ccc(-c2ccc3ncc4c(=O)[nH]c(=O)n(-c5cccc(C(F)(F)F)c5)c4c3n2)cn1
[out] 2590

Data origin: patent US9365572B2
